Molecular target: hGGT (Homo sapiens)
Construct: lacking the transmembrane domain; made in house; host or cells: Pichia pastoris
Sequence (P19440 381-569 limits assumed): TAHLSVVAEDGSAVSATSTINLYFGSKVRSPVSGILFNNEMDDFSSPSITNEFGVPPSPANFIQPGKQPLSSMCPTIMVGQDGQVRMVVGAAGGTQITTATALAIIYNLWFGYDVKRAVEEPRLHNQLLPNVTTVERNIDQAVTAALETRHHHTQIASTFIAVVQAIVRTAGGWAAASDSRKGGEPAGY
Sequence (P19440 27-380 limits assumed): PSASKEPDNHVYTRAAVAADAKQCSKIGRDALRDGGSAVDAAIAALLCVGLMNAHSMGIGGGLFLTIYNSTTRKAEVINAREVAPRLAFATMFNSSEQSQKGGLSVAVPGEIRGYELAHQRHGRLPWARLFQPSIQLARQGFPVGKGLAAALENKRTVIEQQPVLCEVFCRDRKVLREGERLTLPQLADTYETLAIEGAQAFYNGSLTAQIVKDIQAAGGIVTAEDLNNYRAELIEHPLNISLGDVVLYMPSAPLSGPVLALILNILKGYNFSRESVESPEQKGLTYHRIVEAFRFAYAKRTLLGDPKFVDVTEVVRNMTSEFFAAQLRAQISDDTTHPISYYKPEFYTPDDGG
Test: L-Glutamate Release Assay (Hydrolysis of GSH)
Format: biochemical
Conditions: Compound 20, inhibition of GSH hydrolysis; Table 7; read-out: GSH Kii
Procedure: L-Glutamate Release Assay (Hydrolysis of GSH): This assay measures the production of glutamate from the hydrolysis of GSH by GGT enzyme and has been described in detail previously. The concentration of the substrate, GSH, was varied from 5 μM to 20 μM. The concentration of the inhibitors, OU749 and its analogs, were varied from 15.6 μM to 250 μM. […] All compounds were also evaluated as inhibitors of glutamate dehydrogenase, the enzyme in the second half of the L-glutamate release assay. […]
Recorded metric: Ki (µM)

1. O=[N+]([O-])c1ccc(S(=O)(=O)Nc2nnc(Cc3ccc(Cl)c(Cl)c3)s2)cc1	859
